tested on: Wnt/β-catenin signaling (β-catenin activity) in HEK293 cell line; experiment: Cell-based Wnt agonist screening, TCF luciferase reporter, HEK293 (TCF-FL); set-up: species or system human; conditions: Homo sapiens, HEK293, 24 h, % of LiCl (20 mM), 24 h, Conc. 120 μM, read-out: Max. Activity (%)
quantity_name: Emax at 120 µM (%)
Answers are plain numbers, in %.

structure: Cc1ccccc1-c1cc(C(=O)NCCCn2ccnc2)no1
Emax at 120 µM (%): 42

structure: O=C(NCCc1ccccn1)c1cc(-c2ccco2)on1
Emax at 120 µM (%): 32

structure: COc1cccc(-c2cc(C(=O)NCCCn3ccnc3)no2)c1
Emax at 120 µM (%): 59

Batch lookup, Emax at 120 µM per entry.
1. O=C(NCCCn1ccnc1)c1cc(-c2ccccc2[N+](=O)[O-])on1
2. Cc1cn(CCNC(=O)c2cc(-c3ccco3)on2)cn1
3. O=C(O)c1ccc(CCNC(=O)c2cc(-c3ccco3)on2)cc1
4. Cc1cncn1CCNC(=O)c1cc(-c2ccco2)on1
5. Nc1cccc(-c2cc(C(=O)NCCCn3ccnc3)no2)c1
6. O=C(NCCCn1ccnc1)c1cc(-c2ccccc2F)on1

**A:**
[51, 44, 52, 71, 43, 869]

====

Tested on: Wnt/β-catenin signaling (β-catenin activity) in SW480 cell line
Experiment: Cell-based Wnt agonist screening, TCF luciferase reporter, SW480 (TCF-FL)
Parameters: species or system human
Conditions: Homo sapiens, % of LiCl (20 mM), 24 h, Con. 120 μM, read-out: Max. Activity (%)
Description: In order to measure the in vitro activity of compounds of the present invention, two human cancer cell lines, HEK293 and SW480, which have intact Wnt signaling and show APC gene mutation in the Wnt signaling pathway, respectively, were used. […]
quantity_name: Emax at 120 µM (%)
One number for each entry, in %.

List the reported Emax at 120 µM of each compound below.
1. Cc1cncn1CCNC(=O)c1cc(-c2ccco2)on1 [Derivative (36)]
2. COc1ccccc1-c1cc(C(=O)NCCCn2ccnc2)no1 [Derivative (99)]

**A:**
1. 283
2. 37

====

test system: Wnt/β-catenin signaling (β-catenin activity) in SW480 cell line; assay: Cell-based Wnt agonist screening, TCF luciferase reporter, SW480 (TCF-FL); parameters: species or system human; conditions: Homo sapiens, % of LiCl (20 mM), 24 h, Con. 120 μM, read-out: Max. Activity (%)
We use 60% as the dividing line for Emax at 120 µM: on or above the line is MET, below is NOT MET.

**Q:** Entry O=C(NCCn1cncn1)c1cc(-c2cccs2)on1 : is its Emax at 120 µM no less than 60%?
**A:** MET

**Q:** Entry Cc1ccccc1-c1cc(C(=O)NCCCn2ccnc2)no1 : is its Emax at 120 µM no less than 60%?
**A:** NOT MET

**Q:** Please tell me: is the molecule Cc1ccc(N2CCN(CCNC(=O)c3cc(-c4ccco4)on3)CC2)cc1 at or over 60% in terms of Emax at 120 µM?
**A:** MET

**Q:** Hello, I need to know if O=C(CCNC(=O)c1cc(-c2cccs2)on1)c1ccccc1 has measured Emax at 120 µM not below 60%. Thanks!
**A:** MET

**Q:** Hi team, for O=C(NCCCn1ccnc1)c1cc(-c2ccccc2[N+](=O)[O-])on1 , is the recorded Emax at 120 µM at or above 60%?
**A:** NOT MET

**Q:** Would you say O=C(NCCc1ccc(O)cc1)c1cc(-c2cccs2)on1 shows Emax at 120 µM at minimum 60%?
**A:** MET

**Q:** Form field: Emax at 120 µM at least 60%? Entry: O=C(NCCN1CCCCC1)c1cc(-c2ccco2)on1
**A:** MET

**Q:** Has O=C(NCCn1cncn1)c1cc(-c2ccsc2)on1 a recorded Emax at 120 µM greater than or equal to 60%?
**A:** MET

**Q:** Given COc1ccc(N2CCN(CCNC(=O)c3cc(-c4ccco4)on3)CC2)c(OC)c1 , state whether its Emax at 120 µM is at least 60%.
**A:** MET

**Q:** # check: Emax at 120 µM of O=C(NCCn1cnnn1)c1cc(-c2ccco2)on1 is greater than or equal to 60%
**A:** MET

====

System: Wnt/β-catenin signaling (β-catenin activity) in SW480 cell line
Test: Cell-based Wnt agonist screening, TCF luciferase reporter, SW480 (TCF-FL)
Set-up: species or system human
Details: Homo sapiens, % of LiCl (20 mM), 24 h, Con. 120 μM, read-out: Max. Activity (%)
Excerpt: In order to measure the in vitro activity of compounds of the present invention, two human cancer cell lines, HEK293 and SW480, which have intact Wnt signaling and show APC gene mutation in the Wnt signaling pathway, respectively, were used. […]
Classification by Emax at 120 µM follows these ranges: band 1: < 40%; band 2: ≥ 40% and < 400%; band 3: ≥ 400%

compound: O=C(CNC(=O)c1cc(-c2ccco2)on1)Nc1ccccc1 [Derivative (207)]
class_name: band 1
--
compound: Cc1cccnc1N1CCN(CCNC(=O)c2cc(-c3ccco3)on2)CC1 [Derivative (190)]
class_name: band 2
--
compound: O=C(NCCn1cncn1)c1cc(-c2ccoc2)on1 [Derivative (154)]
class_name: band 2
--
compound: CN(CCc1ccccn1)C(=O)c1cc(-c2ccco2)on1 [Derivative (61)]
class_name: band 2

**Q:** Any idea which band O=C(NCCn1ccnc1)c1cc(-c2ccco2)on1 [Derivative (33)] is in?
**A:** band 3

**Q:** Place this compound in its band: CC(C)(C)c1cc(C(=O)NCCCn2ccnc2)no1 [Derivative (167)]
**A:** band 1

**Q:** Class (by measured Emax at 120 µM) for O=C(NCCNc1ccccn1)c1cc(-c2ccco2)on1 [Derivative (204)]
**A:** band 2

**Q:** // return the class label for O=C(NCCCn1ccnc1)c1cc(-c2ccco2)on1 [Derivative (1)]
**A:** band 3

====

tested on: Wnt/β-catenin signaling (β-catenin activity) in SW480 cell line; assay: Cell-based Wnt agonist screening, TCF luciferase reporter, SW480 (TCF-FL); design: species or system human; details: Homo sapiens, % of LiCl (20 mM), 24 h, Con. 120 μM, read-out: Max. Activity (%)
Answer Not fulfilled if Emax at 120 µM is under 40%, and Fulfilled if it is 40% or more.

molecule: CC(=O)N1CCN(CCNC(=O)c2cc(-c3ccco3)on2)CC1 [Derivative (178)]
class_name: Fulfilled
//
molecule: O=C(NCCCn1ccnc1)c1cc(C2CCCCC2)on1 [Derivative (164)]
class_name: Fulfilled
//
molecule: O=C(NCCn1cncn1)c1cc(N2CCOCC2)on1 [Derivative (163)]
class_name: Not fulfilled
//
molecule: Cc1nccn1CCCNC(=O)c1cc(-c2ccco2)on1 [Derivative (44)]
class_name: Fulfilled
//
molecule: O=C(NCCn1cncn1)c1cc(-c2cc3ccccc3o2)on1 [Derivative (171)]
class_name: Fulfilled

Note: attention shifts to another entry.
**Q:** Could you tell me if the measured Emax at 120 µM of O=C(NCCN1CCN(c2ccc([N+](=O)[O-])cc2)CC1)c1cc(-c2ccco2)on1 [Derivative (180)] reaches 40% or more?
**A:** Fulfilled

# credit: patent US7915297B2
